Task for the reader: assign each of the following binders its reported Mean % WT Binding.
# measured_target: human CD33 A329S (human, UniProt P20138 18-364)
# Sequence (P20138 18-364 A329S limits assumed): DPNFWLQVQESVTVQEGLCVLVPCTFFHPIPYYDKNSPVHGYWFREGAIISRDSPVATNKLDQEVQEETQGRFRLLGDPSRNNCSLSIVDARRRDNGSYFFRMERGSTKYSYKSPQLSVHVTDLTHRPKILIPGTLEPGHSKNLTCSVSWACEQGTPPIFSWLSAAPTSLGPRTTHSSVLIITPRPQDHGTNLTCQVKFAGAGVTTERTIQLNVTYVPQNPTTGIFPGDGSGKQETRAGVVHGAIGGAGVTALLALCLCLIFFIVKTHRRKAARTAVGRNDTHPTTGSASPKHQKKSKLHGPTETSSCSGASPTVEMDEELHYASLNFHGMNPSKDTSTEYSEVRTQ
# test_description: flow cytometry, alanine scan

Record excerpt, results attached:
{"binder": "Refmab #4 (antibody, V domains shown, The alanine scan used IgG or Fab) VH: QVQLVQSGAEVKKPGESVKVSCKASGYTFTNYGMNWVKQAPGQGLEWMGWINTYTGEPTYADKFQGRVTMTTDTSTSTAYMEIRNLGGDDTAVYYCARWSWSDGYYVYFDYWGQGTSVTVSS VL: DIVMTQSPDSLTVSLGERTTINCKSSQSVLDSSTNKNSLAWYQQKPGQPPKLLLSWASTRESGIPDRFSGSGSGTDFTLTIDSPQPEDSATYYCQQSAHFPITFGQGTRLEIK", "Mean % WT Binding": "87.3 % of WT"}
{"binder": "Refmab #3 (antibody, V domains shown, The alanine scan used IgG or Fab) VH: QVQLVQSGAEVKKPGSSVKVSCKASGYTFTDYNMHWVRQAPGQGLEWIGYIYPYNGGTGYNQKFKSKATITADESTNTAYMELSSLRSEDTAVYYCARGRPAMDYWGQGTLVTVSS VL: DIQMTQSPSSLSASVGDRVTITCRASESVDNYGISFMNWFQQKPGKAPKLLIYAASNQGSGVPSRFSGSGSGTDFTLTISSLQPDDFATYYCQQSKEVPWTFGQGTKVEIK", "Mean % WT Binding": "133 % of WT"}
{"binder": "Refmab #1 (antibody, V domains shown, The alanine scan used IgG or Fab; also called hP67.6) VH: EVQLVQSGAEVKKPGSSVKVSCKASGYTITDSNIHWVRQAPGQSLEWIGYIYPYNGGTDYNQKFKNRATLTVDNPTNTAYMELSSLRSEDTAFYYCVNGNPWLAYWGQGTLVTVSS VL: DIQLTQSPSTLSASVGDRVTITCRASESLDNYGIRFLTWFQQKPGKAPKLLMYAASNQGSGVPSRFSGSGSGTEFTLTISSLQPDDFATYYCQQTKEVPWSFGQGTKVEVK", "Mean % WT Binding": "88.1 % of WT"}

Attention now turns to another entry.
Incoming: Fill in the blank: the reported Mean % WT Binding of Refmab #2 (antibody, V domains shown, The alanine scan used IgG or Fab) VH: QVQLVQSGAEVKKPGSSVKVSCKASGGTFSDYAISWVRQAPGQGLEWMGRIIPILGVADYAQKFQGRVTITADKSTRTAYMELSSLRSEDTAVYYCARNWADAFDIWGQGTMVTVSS VL: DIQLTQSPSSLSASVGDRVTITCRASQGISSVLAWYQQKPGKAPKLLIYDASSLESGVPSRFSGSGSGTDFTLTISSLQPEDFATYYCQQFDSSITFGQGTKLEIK is ____.
Outgoing: 116 % of WT
